# Test system: Trypanosoma cruzi
# Procedure Summary: Antitrypanosomal activity against Trypanosoma cruzi epimastigotes at 1 ug/ml
# Assay type: functional
Activity of 20% or higher: t. Under 20%: f.

The examples below pair each entry with its known result.
O=C1Nc2cc([N+](=O)[O-])ccc2N2CCCCC12 (stereo not given) = f
O=C1CN(CCCCCCCl)c2ccc([N+](=O)[O-])cc2N1 = t
CN1C(=O)CN(CCCCCCl)c2ccc([N+](=O)[O-])cc21 = f

Q: Hello, I need to know if O=C1Nc2cc([N+](=O)[O-])ccc2N2Cc3ccccc3CC12 (stereo not given) has measured Activity not below 20%. Thanks!
Result: f

Q: Entry `O=C(CN1CCCCC1)Nc1cc([N+](=O)[O-])ccc1F` : is its Activity no less than 20%?
Result: f

* * *

Overview of recorded Activity for various compounds
# Tested on: J774
# Procedure Summary: Unspecific cytotoxicity against murine J774 macrophages at 100 ug/ml
# Type: functional, Mus musculus
Give just the number in %; leave the unit off.

Some entries whose results are on file:
O=C1Nc2cc([N+](=O)[O-])ccc2N2CCCC12 (stereo not given) = 23.6
CN1CC(=O)N(C)c2cc([N+](=O)[O-])ccc21 = 0
O=C1Nc2cc([N+](=O)[O-])ccc2N2Cc3ccccc3CC12 (stereo not given) = 50.4
O=C1CN(CCCCCCCl)c2ccc([N+](=O)[O-])cc2N1 = 97.4
CN1C(=O)CN(CCCCCCl)c2ccc([N+](=O)[O-])cc21 = 99.5

Shifting focus to the compound that follows.
Query O=C(Cn1ccnc1[N+](=O)[O-])NCc1ccccc1 [BENZNIDAZOLE] yields Activity of 1.4

* * *

# Test system: J774
# Procedure Summary: Unspecific cytotoxicity against murine J774 macrophages at 100 ug/ml
# Format: functional, Mus musculus
Activity: recorded values
Just the number in %, nothing appended.

CN1C(=O)C[N+](C)(C)c2ccc([N+](=O)[O-])cc21.[Cl-] = 64.8

O=C1Nc2cc([N+](=O)[O-])ccc2N2CCCCC12 (centres undefined) tested on J774 gave Activity: 34.2

// compound `O=C(CCl)Nc1cc([N+](=O)[O-])ccc1N1CCCCC1` , assay J774, Activity value: 24.9

Activity value, target or system J774, for CC1CS(=O)(=O)CCN1/N=C/c1ccc([N+](=O)[O-])o1 (centres undefined) [NIFURTIMOX] : 25.9
